These measurements were taken from patent US11771709B2.

target: ALK protein in H3122 (EML4-ALK) cells (Homo sapiens, UniProt Q9UM73); construct: EML4 (Echinoderm microtubule-associated protein-like 4, Q9HC35) fusion partner, variant 1; host or cells: NCI-H3122 lung adenocarcinoma cells; the other entry of the earlier key: EML4 (Q9HC35, Echinoderm microtubule-associated protein-like 4); experiment: Western blot of ALK protein level (degradation, DC50), ALK phosphorylation and downstream signaling in H3122 cells; format: cell-based; conditions: ALK protein degradation in H3122 cells
Sequence (Q9UM73 with tags, fused parts or gaps): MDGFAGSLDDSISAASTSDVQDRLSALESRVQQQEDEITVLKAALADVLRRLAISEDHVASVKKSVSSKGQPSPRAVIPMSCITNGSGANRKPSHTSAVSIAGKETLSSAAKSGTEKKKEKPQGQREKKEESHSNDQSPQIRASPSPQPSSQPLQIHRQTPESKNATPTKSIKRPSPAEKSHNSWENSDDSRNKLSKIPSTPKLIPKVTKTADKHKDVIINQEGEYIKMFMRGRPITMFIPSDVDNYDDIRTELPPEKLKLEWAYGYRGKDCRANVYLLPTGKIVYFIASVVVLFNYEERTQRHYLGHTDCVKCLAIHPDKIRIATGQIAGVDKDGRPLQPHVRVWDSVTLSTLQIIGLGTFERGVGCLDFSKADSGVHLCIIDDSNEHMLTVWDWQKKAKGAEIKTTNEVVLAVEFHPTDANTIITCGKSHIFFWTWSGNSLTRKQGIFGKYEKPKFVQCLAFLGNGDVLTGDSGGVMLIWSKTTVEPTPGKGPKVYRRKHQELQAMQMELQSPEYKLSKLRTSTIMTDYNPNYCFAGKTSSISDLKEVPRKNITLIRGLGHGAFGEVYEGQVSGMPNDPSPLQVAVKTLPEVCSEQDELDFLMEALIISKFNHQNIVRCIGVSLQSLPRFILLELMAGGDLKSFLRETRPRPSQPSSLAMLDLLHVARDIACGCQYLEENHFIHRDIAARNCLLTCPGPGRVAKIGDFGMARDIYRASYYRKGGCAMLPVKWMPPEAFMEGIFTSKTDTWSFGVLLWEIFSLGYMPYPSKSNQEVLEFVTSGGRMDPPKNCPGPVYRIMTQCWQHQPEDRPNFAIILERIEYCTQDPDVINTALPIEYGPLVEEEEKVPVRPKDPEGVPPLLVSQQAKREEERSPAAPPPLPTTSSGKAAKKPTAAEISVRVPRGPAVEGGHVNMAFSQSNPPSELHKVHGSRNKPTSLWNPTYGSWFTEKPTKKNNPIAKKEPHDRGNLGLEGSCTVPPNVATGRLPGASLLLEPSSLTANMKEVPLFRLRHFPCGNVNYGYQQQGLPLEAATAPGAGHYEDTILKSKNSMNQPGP
quantity_measured: DC50

Documented DC50 of CCc1cc2c(cc1N1CCN(C(=O)CCOCCOCCNc3cccc4c3C(=O)N(C3CCC(=O)NC3=O)C4=O)CC1)C(C)(C)c1[nH]c3cc(C#N)ccc3c1C2=O (centres unmarked) [SIAIS164012] : 1 to 50 nM

Per the record, COc1cc(N2CCN(C(=O)CCOCCOCCC(=O)N[C@H](C(=O)N3C[C@H](O)C[C@H]3C(=O)NCc3ccc(-c4scnc4C)cc3)C(C)(C)C)CC2)ccc1Nc1ncc(Cl)c(Nc2ccccc2P(C)(C)=O)n1 [SIAIS197079] has DC50 of 50 to 500 nM

Lookup result for COc1cc(N2CCN(C(=O)CCOCCOCCOCCC(=O)N[C@H](C(=O)N3C[C@H](O)C[C@H]3C(=O)NCc3ccc(-c4scnc4C)cc3)C(C)(C)C)CC2)ccc1Nc1ncc(Cl)c(Nc2ccccc2P(C)(C)=O)n1 [SIAIS1197081] ; measured DC50: 50 to 500 nM

Entry under test: CCc1cc2c(cc1N1CCN(C(=O)CCCc3cn(CCCC(=O)N[C@H](C(=O)N4C[C@H](O)C[C@H]4C(=O)NCc4ccc(-c5scnc5C)cc4)C(C)(C)C)nn3)CC1)C(C)(C)c1[nH]c3cc(C#N)ccc3c1C2=O [SIAIS164155] . Its DC50 was 10 to 50 nM

get_value(item= CCc1cc2c(cc1N1CCN(C(=O)CCOCCOCCOCCOCCNc3cccc4c3C(=O)N(C3CCC(=O)NC3=O)C4=O)CC1)C(C)(C)c1[nH]c3cc(C#N)ccc3c1C2=O (centres unmarked) [SIAIS164014] , readout=DC50) returns 100 to 500 nM

----------
Hi there, I'd appreciate the recorded IC50 for every entry that follows.
tested on: SR (NPM-ALK) cells; experiment: Growth inhibition IC50 in ALCL SR cells (CCK8/WST, 72 hours); format: cell-based; details: SR cells, WST; Ceritinib based ALK PROTAD compounds (Table 5)
Just the number in nM, nothing appended.

Reported IC50 of Cc1cc(Nc2ncc(Cl)c(Nc3ccccc3S(=O)(=O)C(C)C)n2)c(OC(C)C)cc1C1CCN(C(=O)CCOCCOCCOCCNc2cccc3c2C(=O)N(C2CCC(=O)NC2=O)C3=O)CC1 (stereo not shown) : 38

// field: IC50; key: Cc1cc(Nc2ncc(Cl)c(Nc3ccccc3S(=O)(=O)C(C)C)n2)c(OC(C)C)cc1C1CCN(C(=O)CCOCCNc2cccc3c2C(=O)N(C2CCC(=O)NC2=O)C3=O)CC1 (stereo not shown) ; value = 85

response.value for Cc1cc(Nc2ncc(Cl)c(Nc3ccccc3S(=O)(=O)C(C)C)n2)c(OC(C)C)cc1C1CCNCC1 [Ceritinib, reference compound] (field: IC50) = 16

IC50 for Cc1cc(Nc2ncc(Cl)c(Nc3ccccc3S(=O)(=O)C(C)C)n2)c(OC(C)C)cc1C1CCN(C(=O)CCC(=O)N[C@H](C(=O)N2C[C@H](O)C[C@H]2C(=O)NCc2ccc(-c3scnc3C)cc2)C(C)(C)C)CC1 is 116

----------
Exercise: for every item that follows, state its recorded Tmax.
assay: Pharmacokinetics (PK) study in SD rat (IV, IP, PO; LC-MS/MS); type: in vivo; conditions: Sprague-Dawley, serum, PO, 10 mg/kg, read-out: Tmax
The response must be a number in h with no trailing unit.

Data point: COc1cc(N2CCC(NC(=O)CCCNc3cccc4c3C(=O)N(C3CCC(=O)NC3=O)C4=O)CC2)ccc1Nc1ncc(Cl)c(Nc2ccccc2P(C)(C)=O)n1 (stereo not shown) [SIAIS151118] ; Tmax = 3.33

Form field Tmax, entry COc1cc(N2CCC(N3CCN(C(=O)CCCCCCNc4cccc5c4C(=O)N(C4CCC(=O)NC4=O)C5=O)CC3)CC2)ccc1Nc1ncc(Cl)c(Nc2ccccc2P(C)(C)=O)n1 (stereo not shown) [SIAIS164023] : 3.33

Value of measured Tmax for the entry COc1cc(N2CCC(N3CCN(C(=O)CCOCCOCCNc4cccc5c4C(=O)N(C4CCC(=O)NC4=O)C5=O)CC3)CC2)ccc1Nc1ncc(Cl)c(Nc2ccccc2P(C)(C)=O)n1 (stereo not shown) [SIAIS164008] : 2.75

The reported value for COc1cc(N2CCC(N3CCN(C(=O)CNc4cccc5c4C(=O)N(C4CCC(=O)NC4=O)C5=O)CC3)CC2)ccc1Nc1ncc(Cl)c(Nc2ccccc2P(C)(C)=O)n1 (stereo not shown) [SIAIS164018] in terms of Tmax is 2

----------
molecular target: ALK protein in H3122 (EML4-ALK) cells (Homo sapiens, UniProt Q9UM73); construct: EML4 (Echinoderm microtubule-associated protein-like 4, Q9HC35) fusion partner, variant 1; host or cells: NCI-H3122 lung adenocarcinoma cells; the other entry of the earlier key: EML4 (Q9HC35, Echinoderm microtubule-associated protein-like 4); experiment: Western blot of ALK protein level (degradation, DC50), ALK phosphorylation and downstream signaling in H3122 cells; format: cell-based; conditions: ALK protein degradation in H3122 cells

| molecule | assayed_target | DC50 (nM)) in H3122 |
| --- | --- | --- |
| COc1cc(N2CCC(N3CCN(C(=O)CCOCCOCCOCCOCCOCCNc4cccc5c4C(=O)N(C4CCC(=O)NC4=O)C5=O)CC3)CC2)ccc1Nc1ncc(Cl)c(Nc2ccccc2P(C)(C)=O)n1 (stereo not shown) | ALK protein in H3122 (EML4-ALK) cells (Homo sapiens, UniProt Q9UM73) | 0.02 to 20 nM |
| COc1cc(N2CCC(N)CC2)ccc1Nc1ncc(Cl)c(Nc2ccccc2P(C)(C)=O)n1 [Brigatinib Analogue B(SIAIS151101)] | ALK protein in H3122 (EML4-ALK) cells (Homo sapiens, UniProt Q9UM73) | Not degrade |
| COc1cc(N2CCC(N3CCNCC3)CC2)ccc1Nc1ncc(Cl)c(Nc2ccccc2P(C)(C)=O)n1 [Brigatinib Analogue C(SIAIS164005)] | ALK protein in H3122 (EML4-ALK) cells (Homo sapiens, UniProt Q9UM73) | Not degrade |
| COc1cc(N2CCC(NC(=O)CCCCCCCCC(=O)N[C@H](C(=O)N3C[C@H](O)C[C@H]3C(=O)NCc3ccc(-c4scnc4C)cc3)C(C)(C)C)CC2)ccc1Nc1ncc(Cl)c(Nc2ccccc2P(C)(C)=O)n1 | ALK protein in H3122 (EML4-ALK) cells (Homo sapiens, UniProt Q9UM73) | 0.02 to 20 nM |

----------
Experiment: Pharmacokinetics (PK) study in SD rat (IV, IP, PO; LC-MS/MS)
Type: in vivo
Conditions: Sprague-Dawley, serum, IP, 2 mg/kg, read-out: serum half-life (converted)
Method: SD rat were used to study the PK of ALK PROTAD compounds. ALK PROTAD compounds SIAIS164008, SIAIS164018, SIAIS164023 and SIAIS151118 were administrated into SD rat via three different routes: IV (Intravenous Injection), IP (Intraperitoneal Injection) and PO ([…]). Blood samples at different sampling time points up to 24 hours post dosing were collected from each animal and analyzed with LC-MS/MS to calculate the PK for each chemical.
For each of the compounds below, state its half-life.
Respond with the bare value in h.

Short answer for COc1cc(N2CCC(N3CCN(C(=O)CCOCCOCCNc4cccc5c4C(=O)N(C4CCC(=O)NC4=O)C5=O)CC3)CC2)ccc1Nc1ncc(Cl)c(Nc2ccccc2P(C)(C)=O)n1 (stereo not shown) : half-life was 1.54

// half-life value for COc1cc(N2CCC(N3CCN(C(=O)CNc4cccc5c4C(=O)N(C4CCC(=O)NC4=O)C5=O)CC3)CC2)ccc1Nc1ncc(Cl)c(Nc2ccccc2P(C)(C)=O)n1 (stereo not shown) : 3.65

So, COc1cc(N2CCC(N3CCN(C(=O)CCCCCCNc4cccc5c4C(=O)N(C4CCC(=O)NC4=O)C5=O)CC3)CC2)ccc1Nc1ncc(Cl)c(Nc2ccccc2P(C)(C)=O)n1 (stereo not shown) ? Its half-life was 1.62

Recorded half-life (compound COc1cc(N2CCC(NC(=O)CCCNc3cccc4c3C(=O)N(C3CCC(=O)NC3=O)C4=O)CC2)ccc1Nc1ncc(Cl)c(Nc2ccccc2P(C)(C)=O)n1 (stereo not shown) ): 3.27

----------
target: Ba/F3 (EML4-ALK/WT) (Homo sapiens, UniProt Q9UM73); construct: Q9HC35 (Echinoderm microtubule-associated protein-like 4); test: Growth inhibition IC50 in Ba/F3 cells expressing EML4-ALK wild type; assay type: cell-based
Sequence (Q9UM73 whole entry, change not shown): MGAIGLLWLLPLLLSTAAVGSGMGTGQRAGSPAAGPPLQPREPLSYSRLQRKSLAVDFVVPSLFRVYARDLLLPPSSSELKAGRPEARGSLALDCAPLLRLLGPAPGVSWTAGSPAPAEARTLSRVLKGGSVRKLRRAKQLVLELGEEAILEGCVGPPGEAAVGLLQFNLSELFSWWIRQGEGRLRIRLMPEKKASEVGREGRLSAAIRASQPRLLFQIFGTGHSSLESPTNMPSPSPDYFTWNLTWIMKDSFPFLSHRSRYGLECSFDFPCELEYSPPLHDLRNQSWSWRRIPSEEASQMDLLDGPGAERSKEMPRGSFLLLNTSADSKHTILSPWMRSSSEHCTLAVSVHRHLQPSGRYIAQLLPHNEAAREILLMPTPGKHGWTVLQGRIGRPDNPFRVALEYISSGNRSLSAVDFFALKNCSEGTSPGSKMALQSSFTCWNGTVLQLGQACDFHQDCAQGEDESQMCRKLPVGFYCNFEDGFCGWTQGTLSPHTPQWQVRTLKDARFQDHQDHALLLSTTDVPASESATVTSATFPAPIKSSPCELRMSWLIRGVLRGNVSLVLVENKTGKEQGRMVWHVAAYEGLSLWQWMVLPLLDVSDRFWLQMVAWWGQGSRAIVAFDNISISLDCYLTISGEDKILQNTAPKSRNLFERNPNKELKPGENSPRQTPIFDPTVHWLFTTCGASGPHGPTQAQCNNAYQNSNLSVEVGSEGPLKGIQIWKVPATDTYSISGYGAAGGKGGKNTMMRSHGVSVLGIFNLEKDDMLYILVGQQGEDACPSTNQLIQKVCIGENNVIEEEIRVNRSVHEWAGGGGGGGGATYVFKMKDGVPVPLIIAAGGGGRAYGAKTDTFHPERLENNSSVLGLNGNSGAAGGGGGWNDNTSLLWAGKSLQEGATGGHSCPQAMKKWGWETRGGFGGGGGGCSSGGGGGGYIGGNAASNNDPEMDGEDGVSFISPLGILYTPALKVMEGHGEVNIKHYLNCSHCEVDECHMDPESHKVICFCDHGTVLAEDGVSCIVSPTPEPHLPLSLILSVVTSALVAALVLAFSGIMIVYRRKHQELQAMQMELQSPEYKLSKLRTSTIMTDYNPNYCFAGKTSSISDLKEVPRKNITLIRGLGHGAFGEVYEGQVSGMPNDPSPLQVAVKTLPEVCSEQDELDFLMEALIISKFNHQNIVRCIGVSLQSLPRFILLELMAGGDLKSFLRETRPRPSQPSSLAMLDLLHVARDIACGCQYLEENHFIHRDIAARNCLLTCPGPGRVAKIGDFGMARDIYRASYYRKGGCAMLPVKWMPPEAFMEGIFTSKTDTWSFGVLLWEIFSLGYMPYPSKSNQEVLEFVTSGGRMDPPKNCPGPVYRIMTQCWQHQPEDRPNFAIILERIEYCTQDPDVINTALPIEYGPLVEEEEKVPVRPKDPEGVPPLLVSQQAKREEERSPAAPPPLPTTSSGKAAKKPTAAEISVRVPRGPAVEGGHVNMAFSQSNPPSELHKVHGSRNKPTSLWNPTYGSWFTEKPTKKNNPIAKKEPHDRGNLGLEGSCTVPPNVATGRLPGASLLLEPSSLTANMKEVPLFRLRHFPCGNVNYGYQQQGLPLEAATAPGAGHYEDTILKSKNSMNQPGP
quantity_measured: GI50
Put down the number, then write its unit next to it.

Field GI50 (entry COc1cc(N2CCC(N3CCN(C(=O)CCOCCOCCNc4cccc5c4C(=O)N(C4CCC(=O)NC4=O)C5=O)CC3)CC2)ccc1Nc1ncc(Cl)c(Nc2ccccc2P(C)(C)=O)n1 (centres unmarked) [SIAIS164008] ) reads 115 nM

So for COc1cc(N2CCC(NC(=O)CCCNc3cccc4c3C(=O)N(C3CCC(=O)NC3=O)C4=O)CC2)ccc1Nc1ncc(Cl)c(Nc2ccccc2P(C)(C)=O)n1 (centres unmarked) [SIAIS151118] , the logged GI50 turned out to be 92 nM

Briefly, GI50 measured for COc1cc(N2CCC(N3CCN(C(=O)CCCCCCNc4cccc5c4C(=O)N(C4CCC(=O)NC4=O)C5=O)CC3)CC2)ccc1Nc1ncc(Cl)c(Nc2ccccc2P(C)(C)=O)n1 (centres unmarked) [SIAIS164023] : 33.6 nM

// sample COc1cc(N2CCC(N3CCN(C(=O)CNc4cccc5c4C(=O)N(C4CCC(=O)NC4=O)C5=O)CC3)CC2)ccc1Nc1ncc(Cl)c(Nc2ccccc2P(C)(C)=O)n1 (centres unmarked) [SIAIS164018] , its GI50 was 30.9 nM

// GI50 value for COc1cc(N2CCC(NC(=O)CCCCCCCCCC(=O)N[C@H](C(=O)N3C[C@H](O)C[C@H]3C(=O)NCc3ccc(-c4scnc4C)cc3)C(C)(C)C)CC2)ccc1Nc1ncc(Cl)c(Nc2ccccc2P(C)(C)=O)n1 [SIAIS1210117] : 123 nM
